experiment: mouse liver microsomal stability (Microsome Assay Protocol); type: in vitro ADME; details: pH 7.4; mouse liver microsomes, NADPH, 37° C.; read-out: MLM t1/2, min
reported-endpoint: half-life at 1 µM (min)
Kindly provide the numeric value in min only, without the unit symbol.

Identify the reported half-life at 1 µM for the following entry. CN(C)CCC(=O)Nc1ccc2c(=O)n(CC3(O)CCN(C(=O)C(CCCNC(=O)c4ccc5c(Cl)ccnc5c4)Cc4ccc(F)cc4)CC3)cnc2c1 (stereo not drawn) [Compound 81] 11.8

---
Identify the reported half-life at 1 µM for the following entry. CN(C)CCCOc1ccc2c(=O)n(CC3(O)CCN(C(=O)[C@H](CCCNC(=O)c4ccc5c(Cl)c6c(nc5c4)CC(C)(C)C6)Cc4ccccc4)CC3)cnc2c1 [Compound 121] 6

Identify the reported half-life at 1 µM for the following entry. CN(C)CCCOc1ccc2c(=O)n(CC3(O)CCN(C(=O)[C@@H](CCCNC(=O)c4ccc5c(Cl)c(C(N)=O)cnc5c4)Cn4ccc(F)n4)CC3)cnc2c1 223

----------
assay: plasma stability (Plasma Assay Protocol); type: in vitro ADME; conditions: 37° C., t1/2 extrapolated if >50% remaining at 60 min, ∞ if near 100% remaining
Field: label. Allowed values: Fulfilled (half-life at 2 µM < 0.5 h) or Not fulfilled (half-life at 2 µM >= 0.5 h).

Completed entries (count: 8):
Decide: half-life at 2 µM of CN(C)CCC(=O)Nc1ccc2c(=O)n(CC3(O)CCN(C(=O)[C@@H]4CCN(CCNC(=O)c5ccc6c(Cl)ccnc6c5)C[C@H]4c4ccccc4)CC3)cnc2c1 strictly below 0.5 h? Not fulfilled

Decide: half-life at 2 µM of CN1CCN(CCC(=O)Nc2ccc3c(=O)n(CC4(O)CCN(C(=O)C5CCN(c6cccc7c6CN(C#N)C7)C[C@H]5c5ccccc5)CC4)cnc3c2)CC1 (stereo partly drawn) strictly below 0.5 h? Fulfilled

Decide: half-life at 2 µM of C=CC(=O)Nc1ccccc1N1CCC(C(=O)N2CCC(O)(Cn3cnc4cc(NC(=O)CCN5CCN(C)CC5)ccc4c3=O)CC2)C(c2ccccc2)C1 (stereo not drawn) strictly below 0.5 h? Fulfilled

Decide: half-life at 2 µM of CN(C)CCC(=O)Nc1ccc2c(=O)n(CC3(O)CCN(C(=O)C(CCc4ncc(-c5ccc6c(Cl)ccnc6c5)o4)Cc4ccccc4)CC3)cnc2c1 (stereo not drawn) strictly below 0.5 h? Not fulfilled

Decide: half-life at 2 µM of CN(C)CCCOc1ccc2c(=O)n(CC3(O)CCN(C(=O)[C@H](Cc4ccccc4)N(C)CCNC(=O)c4ccc5c(Cl)c(C(N)=O)cnc5c4)CC3)cnc2c1 strictly below 0.5 h? Not fulfilled

Decide: half-life at 2 µM of CN1CCN(CCC(=O)Nc2ccc3c(=O)n(CC4(O)CCN(C(=O)[C@@H](CCCNC(=O)c5ccc6c(Cl)c7c(nc6c5)CCCC7)Cc5ccccc5)CC4)cnc3c2)CC1 strictly below 0.5 h? Not fulfilled

Decide: half-life at 2 µM of CN(C)CCCOc1ccc2c(=O)n(CC3(O)CCN(C(=O)[C@H](CCCNC(=O)c4ccc5c(Cl)c(C(=O)NC6CC6)cnc5c4)Cc4ccccc4)CC3)cnc2c1 strictly below 0.5 h? Fulfilled

Decide: half-life at 2 µM of CCc1cc(Cl)c2ccc(C(=O)NCCCC(Cc3ccccc3)C(=O)N3CCC(O)(Cn4cnc5cc(NC(=O)CCN(C)C)ccc5c4=O)CC3)cc2n1 (stereo not drawn) strictly below 0.5 h? Not fulfilled

---
Decide: half-life at 2 µM of O=C(NCCCC(Cn1ccc(F)n1)C(=O)N1CCC(O)(Cn2cnc3ccccc3c2=O)CC1)c1ccc2c(Cl)c3c(nc2c1)CCCC3 (stereo not drawn) strictly below 0.5 h? Not fulfilled

Decide: half-life at 2 µM of C=CC(=O)Nc1ccncc1N1CCC(C(=O)N2CCC(O)(Cn3cnc4cc(NC(=O)CCN5CCN(C)CC5)ccc4c3=O)CC2)C(c2ccccc2)C1 (stereo not drawn) strictly below 0.5 h? Fulfilled

Decide: half-life at 2 µM of CN(C)CCC(=O)Nc1ccc2c(=O)n(CC3(O)CCN(C(=O)C(CCCNC(=O)c4ccc5c(Cl)ccnc5c4)Cc4ccccc4)CC3)cnc2c1 (stereo not drawn) strictly below 0.5 h? Not fulfilled

Decide: half-life at 2 µM of CN(C)CCC(=O)Nc1ccc2c(=O)n(CC3(O)CCN(C(=O)C(CCCC(=O)Nc4ccc5c(Cl)ccnc5c4)Cc4ccccc4)CC3)cnc2c1 (stereo not drawn) strictly below 0.5 h? Not fulfilled

----------
assay: mouse liver microsomal stability (Microsome Assay Protocol); type: in vitro ADME; details: pH 7.4; mouse liver microsomes, NADPH, 37° C.; read-out: MLM t1/2, min
// reported half-life at 1 µM for each item listed
Kindly provide the numeric value in min only, without the unit symbol.

Identify the reported half-life at 1 µM for the following entry. O=C(CCN1CCNCC1)Nc1ccc2c(=O)n(CC3(O)CCN(C(=O)C(CCCNC(=O)c4ccc5c(Cl)ccnc5c4)Cc4ccccc4)CC3)cnc2c1 (stereo not drawn) 28.4

Identify the reported half-life at 1 µM for the following entry. CN(C)CCC(=O)Nc1ccc2c(=O)n(CC3(O)CCN(C(=O)C4CN(CCNC(=O)c5ccc6c(Cl)ccnc6c5)CC4Cc4ccccc4)CC3)cnc2c1 (stereo not drawn) 36.5

Identify the reported half-life at 1 µM for the following entry. CN1CCN(CCn2cc3ncn(CC4(O)CCN(C(=O)C(CCCNC(=O)c5ccc6c(Cl)ccnc6c5)Cc5ccccc5)CC4)c(=O)c3n2)CC1 (stereo not drawn) 20

Identify the reported half-life at 1 µM for the following entry. C=CS(=O)(=O)Nc1ccccc1N1CCC(C(=O)N2CCC(O)(Cn3cnc4cc(NC(=O)CCN5CCN(C)CC5)ccc4c3=O)CC2)[C@H](c2ccccc2)C1 (stereo partly drawn) 14.7

Identify the reported half-life at 1 µM for the following entry. CN(C)CCCNc1cc2ncn(CC3(O)CCN(C(=O)[C@@H](CCCNC(=O)c4ccc5c(Cl)cc(C6CC6)nc5c4)Cc4ccccc4)CC3)c(=O)c2cc1F 18.6

Pending compound:
Identify the reported half-life at 1 µM for the following entry. CN(C)CCCOc1ccc2c(=O)n(CC3(O)CCN(C(=O)C(CCCNC(=O)c4ccc5c(Cl)c(C(N)=O)cnc5c4)Cn4ccc(F)n4)CC3)cnc2c1 (stereo not drawn) 131

----------
// reported pIC50 for each item listed
biological target: USP7, Active human recombinant protein (Homo sapiens); construct: purchased CP Lot; 20200225001; test: USP7 assay (Ubiquitin-Rhodamine 110 enzymatic assay); type: biochemical; settings: read-out: IC50
pIC50: −log10 of the molar value.

Identify the reported pIC50 for the following entry. NC(=O)c1cnc2cc(C(=O)NCCCC(Cn3ccc(F)n3)C(=O)N3CCC(O)(Cn4cnc5ccccc5c4=O)CC3)ccc2c1Cl (stereo not drawn) 7.00 to 7.70

---
Identify the reported pIC50 for the following entry. O=C(NCCC[C@H](Cc1ccccc1)C(=O)N1CCC(O)(Cn2cnc3cc(-c4ncc(CN5CCNCC5)o4)ccc3c2=O)CC1)c1ccc2c(Cl)cc(C3CC3)nc2c1 7.00 to 7.70

Identify the reported pIC50 for the following entry. CN(C)CCCOc1ccc2c(=O)n(CC3(O)CCN(C(=O)C(CCCNC(=O)c4ccc5c(Cl)c(C(N)=O)cnc5c4)Cn4ccc(F)n4)CC3)cnc2c1 (stereo not drawn) > 7.70

----------
molecular target: USP7, Active human recombinant protein (Homo sapiens, UniProt Q93009); construct: purchased CP Lot; 20200225001; assay: USP7 assay (Ubiquitin-Rhodamine 110 enzymatic assay); type: biochemical; details: read-out: IC50
Sequence (Q93009 whole entry): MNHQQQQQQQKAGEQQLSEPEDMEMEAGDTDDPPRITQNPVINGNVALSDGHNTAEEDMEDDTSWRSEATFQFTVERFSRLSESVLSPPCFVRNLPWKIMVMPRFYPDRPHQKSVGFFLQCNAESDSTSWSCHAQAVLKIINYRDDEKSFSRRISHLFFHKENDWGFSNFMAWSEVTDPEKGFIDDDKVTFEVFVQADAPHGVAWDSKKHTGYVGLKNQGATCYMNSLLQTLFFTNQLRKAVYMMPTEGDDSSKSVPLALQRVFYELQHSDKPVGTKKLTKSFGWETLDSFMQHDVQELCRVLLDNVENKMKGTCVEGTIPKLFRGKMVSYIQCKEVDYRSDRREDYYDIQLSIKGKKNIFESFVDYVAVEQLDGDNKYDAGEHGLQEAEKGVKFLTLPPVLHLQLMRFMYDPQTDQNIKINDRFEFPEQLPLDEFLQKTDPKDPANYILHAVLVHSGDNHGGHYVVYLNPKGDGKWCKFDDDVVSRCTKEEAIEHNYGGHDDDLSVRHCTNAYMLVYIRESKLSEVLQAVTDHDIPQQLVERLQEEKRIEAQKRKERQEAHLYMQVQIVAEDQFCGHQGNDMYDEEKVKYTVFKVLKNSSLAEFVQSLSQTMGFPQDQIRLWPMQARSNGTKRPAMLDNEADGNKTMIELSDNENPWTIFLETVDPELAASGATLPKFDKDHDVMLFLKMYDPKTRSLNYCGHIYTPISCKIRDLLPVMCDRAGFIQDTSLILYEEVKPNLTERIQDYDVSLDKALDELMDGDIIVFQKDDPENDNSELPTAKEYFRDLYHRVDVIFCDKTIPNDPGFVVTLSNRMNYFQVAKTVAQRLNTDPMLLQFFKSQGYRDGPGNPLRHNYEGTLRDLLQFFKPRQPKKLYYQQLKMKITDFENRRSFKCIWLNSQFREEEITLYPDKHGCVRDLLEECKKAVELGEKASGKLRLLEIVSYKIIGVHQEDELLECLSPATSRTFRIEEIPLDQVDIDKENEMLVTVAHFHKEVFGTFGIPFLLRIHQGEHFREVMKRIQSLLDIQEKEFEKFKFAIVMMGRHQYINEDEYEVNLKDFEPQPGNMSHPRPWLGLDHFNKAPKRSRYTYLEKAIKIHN
pIC50: −log10 of the molar value.
// reported pIC50 for each item listed

Identify the reported pIC50 for the following entry. CN(C)CCC(=O)Nc1ccc2c(=O)n(CC3(O)CCN(C(=O)C4CCN(CCNC(=O)c5ccc6c(Cl)ccnc6c5)C[C@H]4c4ccccc4)CC3)cnc2c1 (some centres unmarked) [Compound 73] 7.00 to 7.70

Identify the reported pIC50 for the following entry. COc1cc(Cl)nc2cc(C(=O)NCCCC(Cc3ccccc3)C(=O)N3CCC(O)(Cn4cnc5cc(NC(=O)CCN(C)C)ccc5c4=O)CC3)ccc12 (centres unmarked) [Compound 67] < 6.00

Identify the reported pIC50 for the following entry. CN(C)CCC(=O)Nc1ccc2c(=O)n(CC3(O)CCN(C(=O)C(CCCNC(=O)c4ccc5c(Cl)c6c(nc5c4)CNCC6)Cc4ccccc4)CC3)cnc2c1 (centres unmarked) [Compound 88] < 6.00

Identify the reported pIC50 for the following entry. CN1CCN(CCC(=O)Nc2ccc3c(=O)n(CC4(O)CCN(C(=O)C(CCCNC(=O)c5ccc6c(Cl)cc(-c7cccc(C#N)c7)nc6c5)Cc5ccccc5)CC4)cnc3c2)CC1 (centres unmarked) [Compound 16] 6.00 to 7.00

Identify the reported pIC50 for the following entry. CC(c1ccccc1)C(CCCNC(=O)c1ccc2c(Cl)cc(C3CC3)nc2c1)C(=O)N1CCC(O)(Cn2cnc3cc(OCCCN(C)C)ccc3c2=O)CC1 (centres unmarked) 7.00 to 7.70

Identify the reported pIC50 for the following entry. CN(C)CCC(=O)Nc1ccc2c(=O)n(CC3(O)CCN(C(=O)C(CCCNC(=O)c4ccc5c(Cl)nccc5c4)Cc4ccccc4)CC3)cnc2c1 (centres unmarked) [Compound 68] < 6.00

Identify the reported pIC50 for the following entry. C=CS(=O)(=O)Nc1ccccc1N1CCC(C(=O)N2CCC(O)(Cn3cnc4cc(NC(=O)CCN5CCN(C)CC5)ccc4c3=O)CC2)[C@H](c2ccccc2)C1 (some centres unmarked) [Compound 93] > 7.70

Identify the reported pIC50 for the following entry. C=CC(=O)Nc1ccc(Cl)cc1N1CCC(C(=O)N2CCC(O)(Cn3cnc4cc(NC(=O)CCN5CCN(C)CC5)ccc4c3=O)CC2)C(c2ccccc2)C1 (centres unmarked) [Compound 103] 6.00 to 7.00

Pending compound:
Identify the reported pIC50 for the following entry. CN1CCN(CCC(=O)Nc2ccc3c(=O)n(CC4(O)CCN(C(=O)[C@H](CCCNC(=O)c5ccc6c(Cl)c7c(nc6c5)CCCC7)Cc5ccccc5)CC4)cnc3c2)CC1 6.00 to 7.00

Numbers sourced from patent US20240376076A1.
